Recorded values, source patent US6787562B2.

Entries and their measured melting point follow.

Known results for compounds:
{"Compound": "CCN(Cc1ccccc1Oc1ccccc1)c1ccc(C(=O)O)cn1", "Data Value": "170.5 to 172 °C"}
{"Compound": "O=C(O)c1ccc(SCc2ccccc2OCc2ccccc2)cc1 [Example 18, 4-[2-Benzyloxybenzylthio]benzoic Acid]", "Data Value": "144 °C"}
{"Compound": "O=C(O)c1ccc(NCc2cc(Br)ccc2CCc2ccccc2)cc1", "Data Value": "126 to 127 °C"}
{"Compound": "CC(c1ccc(C(=O)O)cc1)N(C)c1ccc(Br)cc1OCc1ccccc1 (stereo not drawn)", "Data Value": "181.5 to 182 °C"}
{"Compound": "O=C(O)c1ccc(CCCc2ccccc2Sc2ccccc2)cc1", "Data Value": "90 to 91 °C"}
{"Compound": "O=C(Nc1cccnc1)c1ccc(SCc2ccccc2OCc2ccccc2)cc1", "Data Value": "108 °C"}
{"Compound": "O=C(O)c1ccc(OCc2ccccc2OCc2ccccc2)cc1", "Data Value": "176.8 to 178.8 °C"}
{"Compound": "O=C(O)c1ccc(CNc2cc(Br)ccc2OCc2ccccc2)cc1", "Data Value": "216 to 217 °C"}

Request: Assign melting point to the following record: O=C(O)c1ccc(CCCc2ccccc2Cc2ccccc2)cc1 [Example 34, 4-[3-(2-benzylphenyl)propyl]benzoic Acid]
Result: 135 to 136 °C

Request: Assign melting point to the following record: CCN(Cc1ccccc1Oc1ccccc1)c1ccc(C(=O)O)nn1
Result: 70 to 75 °C

Request: Assign melting point to the following record: CCN(Cc1ccc(C(=O)O)cc1)c1cc(Br)ccc1OCc1ccccc1
Result: 94.5 to 95 °C

Request: Assign melting point to the following record: O=C(O)c1ccc(CCc2ccccc2CCc2ccccc2)cc1O
Result: 134 to 137 °C

Request: Assign melting point to the following record: O=C(O)c1ccc(OCc2ccccc2CCc2ccccc2)cc1
Result: 178 to 180 °C

Request: Assign melting point to the following record: CC(Oc1ccc(C(=O)O)cc1)c1ccccc1OCc1ccccc1 (stereo not drawn)
Result: 108 °C

Request: Assign melting point to the following record: CC(Nc1cc(Br)ccc1OCc1ccccc1)c1ccc(C(=O)O)cc1 (stereo not drawn)
Result: 186.5 to 187 °C
